# Target entity: T1, TAV 2b (Tomato aspermy virus, UniProt Q8UYT3 1-95)
# T1 sequence: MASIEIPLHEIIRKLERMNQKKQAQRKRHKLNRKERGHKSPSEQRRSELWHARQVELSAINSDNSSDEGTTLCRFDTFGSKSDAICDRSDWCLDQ
# Procedure summary: EMSA
# Assay context: protein: recombinant; tags: His-SUMO removed; chain copies: 2; label: 5'-32P; 3' overhangs 2 nt
pKd: −log10 of the molar value.

| Binder | pKd |
| --- | --- |
| gf698 siRNA (dsRNA, 5'-phosphate) RNA 1: UAGUUCAUCCAUGCCAUGUGU RNA 2: ACAUGGCAUGGAUGAACUAUA | 9.17 |
